The measurements presented in this section are drawn from patent US10933063B2.

Catalogue of compounds with associated pIC50
experimental.target: BTK (Homo sapiens (Human))
protocol.details: biochemical
pIC50: −log10 of the molar value.

Recorded pIC50, per entry:
CC#CC(=O)N1CCCC[C@H]1c1nc(-c2ccc(Oc3cccc(OC)c3F)cc2)c2c(C)ncc(C)n12 = 6.00 to 7.00
CC#CC(=O)N1CCCC[C@H]1c1nc(-c2ccc(COc3ccc(F)c(F)c3)cc2)c2cnccn12 = 5.00 to 6.00
CC#CC(=O)N1CCC[C@H]1c1nc(-c2ccc(COc3ccccc3F)cc2)c2cnccn12 = 5.00 to 6.00

Qu. Data request, read-out pIC50, for `CC#CC(=O)N1CCC[C@H]1c1nc(-c2ccc(COc3ccc(F)cc3)cc2)c2cnccn12`
Ans. 5.00 to 6.00

###

experimental.target: BTK (Homo sapiens (Human), UniProt Q06187)
Sequence (Q06187 whole entry, looked up, species assumed): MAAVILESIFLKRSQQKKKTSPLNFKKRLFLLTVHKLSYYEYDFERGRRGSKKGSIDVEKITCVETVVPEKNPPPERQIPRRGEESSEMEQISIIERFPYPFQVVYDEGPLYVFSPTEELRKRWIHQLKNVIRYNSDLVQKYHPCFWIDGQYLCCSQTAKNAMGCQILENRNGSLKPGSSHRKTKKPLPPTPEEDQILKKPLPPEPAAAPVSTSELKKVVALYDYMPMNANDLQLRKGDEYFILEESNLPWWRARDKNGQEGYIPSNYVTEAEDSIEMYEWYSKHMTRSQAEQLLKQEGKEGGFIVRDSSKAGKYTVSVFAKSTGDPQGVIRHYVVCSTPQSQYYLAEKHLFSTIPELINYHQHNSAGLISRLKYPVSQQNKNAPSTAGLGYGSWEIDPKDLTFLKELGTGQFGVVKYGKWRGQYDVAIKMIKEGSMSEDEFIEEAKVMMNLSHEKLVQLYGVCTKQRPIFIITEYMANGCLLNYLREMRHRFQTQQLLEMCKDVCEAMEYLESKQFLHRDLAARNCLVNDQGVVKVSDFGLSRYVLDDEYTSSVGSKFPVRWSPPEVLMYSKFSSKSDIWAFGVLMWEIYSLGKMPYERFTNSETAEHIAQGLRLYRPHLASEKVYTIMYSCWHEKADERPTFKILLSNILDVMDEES
run.parameters: read-out: BTK Inhibition
pIC50: −log10 of the molar value.
Catalogue of molecules with associated pIC50

CC#CC(=O)N1CC[C@@H](c2nc(-c3ccc(Oc4cccc(OC)c4F)cc3)c3c(C(C)C)nccn23)C1 [Example 112] = < 5.00
C=CC(=O)N1CC[C@@H](c2nc(-c3ccc(Oc4cccc(OC)c4F)cc3)c3cncc(OC)n23)C1 [Example 85] = > 8.00
C=CC(=O)N1CCC[C@H]1c1nc(-c2ccc(Oc3cccc(OC)c3F)cc2)c2cnccn12 [Example 30] = > 8.00
C=CC(=O)N1CCCC[C@H]1c1nc(-c2ccc(Oc3cccc(OC)c3F)cc2)c2c(C)nccn12 [Example 27] = > 8.00

Qu. Data request, read-out pIC50, for C=CC(=O)N1CCC[C@H]1c1nc(-c2ccc(Oc3cccc(Cl)c3F)cc2)c2cnccn12 [Example 22]
Ans. > 8.00

Qu. Data request, read-out pIC50, for CC#CC(=O)N1CC[C@@H](c2nc(-c3ccc(Oc4cccc(OC)c4F)cc3)c3c(C(N)=O)nccn23)C1 [Example 108]
Ans. < 5.00

Qu. Data request, read-out pIC50, for C=CC(=O)N1CCC[C@H]1c1nc(-c2ccc(Oc3cccc(OC)c3C)cc2)c2cnccn12 [Example 29]
Ans. > 8.00

Qu. Data request, read-out pIC50, for C=CC(=O)N1CC[C@@H](c2nc(-c3ccc(Oc4cccc(OC)c4F)cc3)c3cncc(OCC)n23)C1 [Example 94]
Ans. > 8.00

Qu. Data request, read-out pIC50, for C=CC(=O)N1CCC[C@@H](c2nc(-c3ccc(C(=O)Nc4ccccn4)cc3)c3c(C)ncc(C)n23)C1 [Example 184]
Ans. > 8.00

Qu. Data request, read-out pIC50, for C=CC(=O)N1CCCC[C@H]1c1nc(-c2ccc(Oc3cccc(OC)c3)cc2)c2c(C)nccn12 [Example 48]
Ans. > 8.00

Qu. Data request, read-out pIC50, for CC#CC(=O)N1CCCC[C@H]1c1nc(-c2ccc(Oc3cccc(OC)c3F)cc2)c2c(C(F)(F)F)nccn12 [Example 122]
Ans. < 5.00

Qu. Data request, read-out pIC50, for CCCCOc1cncc2c(-c3ccc(Oc4cccc(OC)c4F)cc3)nc([C@@H]3CCN(Cc4ccccc4)C3)n12 [Example 102]
Ans. < 5.00

Qu. Data request, read-out pIC50, for C=CC(=O)N1CCCC[C@H]1c1nc(-c2ccc(C(=O)Nc3ccccn3)cc2)c2c(C3CC3)nccn12 [Example 191]
Ans. < 5.00

Qu. Data request, read-out pIC50, for C=CC(=O)N1CCC[C@H]1c1nc(-c2ccc(Oc3cccc(Cl)c3)cc2)c2cnccn12 [Example 28]
Ans. > 8.00
